target: HDAC3/NCoR2 (Homo sapiens); construct: HDAC3/NCoR2 (full length, C-terminal His tag, NCoR2 N-terminal GST tag); assay: Recombinant HDAC µSPOT microarray binding assay;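 further: peptide spots on cellulose slides incubated with rising HDAC enzyme concentrations, imaged together, four-parameter logistic fit, EC50 is enzyme concentration giving half-maximal binding signal, two experiments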
Sequence (O15379 whole entry): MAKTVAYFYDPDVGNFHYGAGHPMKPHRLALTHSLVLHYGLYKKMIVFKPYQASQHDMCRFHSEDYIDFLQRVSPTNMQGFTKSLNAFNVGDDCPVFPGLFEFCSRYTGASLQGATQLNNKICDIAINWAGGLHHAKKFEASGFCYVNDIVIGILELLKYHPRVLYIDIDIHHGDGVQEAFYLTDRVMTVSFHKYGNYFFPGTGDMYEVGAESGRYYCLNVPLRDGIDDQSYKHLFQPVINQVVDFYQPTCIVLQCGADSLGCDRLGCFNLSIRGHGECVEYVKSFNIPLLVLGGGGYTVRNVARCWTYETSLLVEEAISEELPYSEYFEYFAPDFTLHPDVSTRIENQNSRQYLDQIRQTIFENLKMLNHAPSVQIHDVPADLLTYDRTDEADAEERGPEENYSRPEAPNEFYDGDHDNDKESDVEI
Sequence (Q9Y618 389-480 partner limits assumed): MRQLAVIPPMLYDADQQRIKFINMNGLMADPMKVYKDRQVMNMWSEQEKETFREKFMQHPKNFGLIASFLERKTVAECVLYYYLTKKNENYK
Non-standard residues stand in square brackets, D forms with d. Residues, ends and D or L forms follow the SMILES beside them. *: point of attachment. Asu = N[C@@H](CCCCCC(=O)O)C(=O)O; NHOH = ON*
Recorded Endpoint: EC50
Please state the number and follow it with the unit.

Below: 4 molecules and their reported EC50.
Molecule: CC(=O)N[C@@H](C)C(=O)N1CCC[C@H]1C(=O)N[C@@H](C)C(=O)N1CCC[C@H]1C(=O)N[C@@H](CCCCN)C(=O)N[C@@H](CCCCCC(=O)NO)C(=O)NCC(=O)N[C@@H](CO)C(=O)N[C@@H](CCCCN)C(=O)N[C@@H](CCCCN)C(=O)N[C@@H](C)C(=O)N[C@H](C(=O)N[C@H](C(=O)N[C@@H](CCCCN)C(=O)N[C@@H](C)C(=O)N[C@@H](CCC(N)=O)C(=O)N[C@@H](Cc1c[nH]c2ccccc12)C(N)=O)[C@@H](C)O)C(C)C [10a] (Ac-APAPK[Asu](NHOH)GSKKAVTKAQW-NH2)
EC50: 3.09 nM

Molecule: CC(=O)N1CCC[C@H]1C(=O)N[C@@H](CCCNC(=N)N)C(=O)N[C@@H](CCCCN)C(=O)N[C@@H](CCC(N)=O)C(=O)N[C@@H](CC(C)C)C(=O)N[C@@H](C)C(=O)N[C@H](C(=O)N[C@@H](CCCCN)C(=O)N[C@@H](C)C(=O)N[C@@H](C)C(=O)N[C@@H](CCCNC(=N)N)C(=O)N[C@@H](CCCCCC(=O)NO)C(=O)N[C@@H](CO)C(=O)N[C@@H](C)C(=O)N1CCC[C@H]1C(=O)N[C@@H](C)C(=O)N[C@@H](Cc1c[nH]c2ccccc12)C(N)=O)[C@@H](C)O [14a] (Ac-PRKQLATKAAR[Asu](NHOH)SAPAW-NH2)
EC50: 2.95 nM

Molecule: CC(=O)N[C@@H](C)C(=O)N[C@@H](CCCNC(=N)N)C(=O)N[C@@H](CCCCN)C(=O)N[C@@H](CO)C(=O)N[C@H](C(=O)NCC(=O)NCC(=O)N[C@@H](CCCCN)C(=O)N[C@@H](C)C(=O)N1CCC[C@H]1C(=O)N[C@@H](CCCNC(=N)N)C(=O)N[C@@H](CCCCCC(=O)NO)C(=O)N[C@@H](CCC(N)=O)C(=O)N[C@@H](CC(C)C)C(=O)N[C@@H](C)C(=O)N[C@H](C(=O)N[C@@H](Cc1c[nH]c2ccccc12)C(N)=O)[C@@H](C)O)[C@@H](C)O [13a] (Ac-ARKSTGGKAPR[Asu](NHOH)QLATW-NH2)
EC50: 4.17 nM

Molecule: CC(=O)N[C@@H](C)C(=O)N[C@H](C(=O)NCC(=O)NCC(=O)N[C@H](C(=O)N[C@@H](CCCCCC(=O)NO)C(=O)N[C@@H](CCCCN)C(=O)N1CCC[C@H]1C(=O)N[C@@H](Cc1c[nH]cn1)C(=O)N[C@@H](CCCNC(=N)N)C(=O)N[C@@H](Cc1ccc(O)cc1)C(=O)N[C@@H](CCCNC(=N)N)C(=O)N1CCC[C@H]1C(=O)NCC(=O)N[C@H](C(=O)N[C@H](C(=O)N[C@@H](Cc1c[nH]c2ccccc12)C(N)=O)C(C)C)[C@@H](C)O)C(C)C)[C@@H](C)O [15a] (Ac-ATGGV[Asu](NHOH)KPHRYRPGTVW-NH2)
EC50: 2.4 nM

Lookup: Could you share what EC50 was measured for CC(=O)NCC(=O)NCC(=O)N[C@@H](CCCCCC(=O)NO)C(=O)N[C@@H](C)C(=O)N[C@@H](CCCNC(=N)N)C(=O)N[C@@H](C)C(=O)N[C@@H](CCCCN)C(=O)N[C@@H](C)C(=O)N[C@@H](CCCCN)C(=O)N[C@H](C(=O)N[C@@H](CCCNC(=N)N)C(=O)N[C@@H](CO)C(=O)N[C@@H](CO)C(=O)N[C@@H](CCCNC(=N)N)C(=O)N[C@@H](C)C(=O)NCC(=O)N[C@@H](Cc1c[nH]c2ccccc12)C(N)=O)[C@@H](C)O [9a] (Ac-GG[Asu](NHOH)ARAKAKTRSSRAGW-NH2) , tested on HDAC3/NCoR2 (Homo sapiens)?
Found: 6.03 nM
